molecular target: ZFP SBS#1018 (synthetic); assay: EMSA; conditions: tags: MBP fusion
Sequence (chain, as listed by the source): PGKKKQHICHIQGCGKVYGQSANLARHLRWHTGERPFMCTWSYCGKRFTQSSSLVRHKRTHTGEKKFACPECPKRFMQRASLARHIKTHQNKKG
readout_type: Kd (nM)

[
  {
    "binder": "GTAGTAGAA (dsDNA) DNA 1: GTAGTAGAA DNA 2: TTCTACTAC",
    "readout_type": "Kd",
    "reported_value": 7.2
  }
]
